- experimentalDetails: Lipophilicity, logD of the compound at pH 7.4 by shake-flask assay
- Format: physicochemical
- setupConditions: buffer
I'd be grateful if you could share measured logD for these entries.
// keep it numeric: no unit symbol after the value

Entry Cn1cc(Nc2nc(N[C@H]3CC[C@H](N4CCOCC4)CC3)c3cc(C#N)ccc3n2)cn1 ; logD = 2.6

Entry COC(=O)N1CCN([C@H]2CC[C@H](Nc3nc(Nc4cnn(C)c4)nc4ccc(C5(C#N)CC5)nc34)CC2)CC1 ; logD = 3.2

Entry COC(=O)N1CCN([C@H]2CC[C@H](Nc3ncnc4ccc(C)nc34)CC2)CC1 ; logD = 2

Entry COC(=O)N1CCN([C@H]2CC[C@H](Nc3nc(Nc4cnn(C)c4)nc4ccc(C)nc34)CC2)CC1 ; logD = 2.6

Entry CC(=O)N1CCN([C@H]2CC[C@H](Nc3ncnc4ccc(C#N)cc34)CC2)CC1 ; logD = 1.4

Entry COC(=O)N1CCN([C@H]2CC[C@H](Nc3nc(Nc4cnn(C)c4)nc4ccc(C(C)C#N)nc34)CC2)CC1 (some centres undefined) ; logD = 2.8

Entry N#Cc1ccc2ncnc(N[C@H]3CC[C@H](N4CCOCC4)CC3)c2c1 ; logD = 1.6

Entry COC(=O)N1CCN([C@H]2CC[C@H](Nc3nc(Nc4cnn(C)c4)nc4ccc(C#N)cc34)CC2)CC1 ; logD = 3.2

Entry COC(=O)N1CCN([C@H]2CC[C@H](Nc3nc(Nc4cnn(C)c4)nc4ccc(C(C)(C)C#N)nc34)CC2)CC1 ; logD = 3

Entry COC(=O)N1CCN([C@H]2CC[C@H](Nc3ncnc4ccc(C)cc34)CC2)CC1 ; logD = 2.5

Entry COC(=O)N1CCN([C@H]2CC[C@H](Nc3ncnc4ccc(C#N)cc34)CC2)CC1 ; logD = 2.2

Entry COC(=O)N1CCN([C@H]2CC[C@H](Nc3nc(Nc4cnn(C)c4)nc4ccc(CC#N)nc34)CC2)CC1 ; logD = 2.3

Entry COC(=O)N1CCN([C@H]2CC[C@H](Nc3nc(Nc4cnn(C)c4)nc4ccc(C#N)nc34)CC2)CC1 ; logD = 2.7

Entry CC(=O)N1CCN([C@H]2CC[C@H](Nc3nc(Nc4cnn(C)c4)nc4ccc(C#N)cc34)CC2)CC1 ; logD = 2.3

* * *

I'd be grateful if you could share measured pIC50 for these entries.
- measuredTarget: Interleukin-1 receptor-associated kinase 4 (Homo sapiens)
- Sequence (Q9NWZ3 whole entry): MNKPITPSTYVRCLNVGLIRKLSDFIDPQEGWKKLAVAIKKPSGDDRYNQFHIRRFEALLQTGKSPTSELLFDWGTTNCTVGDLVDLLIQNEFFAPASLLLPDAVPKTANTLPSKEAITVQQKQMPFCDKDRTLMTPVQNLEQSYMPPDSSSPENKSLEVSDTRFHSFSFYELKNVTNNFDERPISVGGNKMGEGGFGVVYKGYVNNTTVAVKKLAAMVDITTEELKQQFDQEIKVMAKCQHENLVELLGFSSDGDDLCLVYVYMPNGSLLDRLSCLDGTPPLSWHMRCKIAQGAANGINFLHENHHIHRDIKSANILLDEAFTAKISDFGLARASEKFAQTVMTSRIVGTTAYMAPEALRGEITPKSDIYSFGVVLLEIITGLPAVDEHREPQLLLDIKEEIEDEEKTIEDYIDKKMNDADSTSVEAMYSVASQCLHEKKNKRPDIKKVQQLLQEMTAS
- experimentalDetails: Inhibition of IRAK4 (unknown origin) by cell based assay
Reminder that pIC50 means the negative base-10 logarithm of the concentration expressed in mol/L.

Entry COC(=O)N1CCN([C@H]2CC[C@H](Nc3nc(Nc4cnn(C)c4)nc4ccc(CC#N)nc34)CC2)CC1 ; pIC50 = 7.34

Entry COC(=O)N1CCN([C@H]2CC[C@H](Nc3nc(Nc4cnn(C)c4)nc4ccc(C#N)cc34)CC2)CC1 ; pIC50 = 7.47

Entry CC(=O)N1CCN([C@H]2CC[C@H](Nc3nc(Nc4cnn(C)c4)nc4ccc(C#N)cc34)CC2)CC1 ; pIC50 = 6.40
